These measurements were taken from PubChem BioAssay (Tox21).

Assay: qHTS RealTime-Glo MT Cell Viability Assay in HEK293 cells - 32 hour (AID 1224868); note: nearly all actives have a fitted effect of over 50% in size
Settings: RealTime-Glo luminescence; series mostly up to 76.8 µM
Inconclusive results are not listed. Active and inactive are the calls of the source. Calls come from the whole dose curve; as a rule, active = well fitted cell-killing curve with a large enough effect in the repeat runs; inconclusive = weak or mixed curves, or effect the other way; inactive = flat fitted curve, though single readings scatter.
Answer with one of the outcomes 1.0 for active, 0.0 for inactive

* CCc1cccc(C)c1N(C(=O)CCl)[C@@H](C)COC | 0.0
* COc1ccc2[nH]cc(CCN(C(C)C)C(C)C)c2c1 | 0.0
* ClC1=C(Cl)[C@]2(Cl)[C@@H]3[C@H]4C[C@H]([C@@H]5O[C@H]45)[C@@H]3[C@@]1(Cl)C2(Cl)Cl | 0.0
* C=C(C)C(=O)[O][Sn]([CH2]CCC)([CH2]CCC)[CH2]CCC | 1.0
* Brc1cccc(-c2ccccc2)c1 | 0.0
* O=[N+]([O-])c1ccccc1-c1ccccc1 | 0.0
* CCCCC/C=C\C/C=C\C/C=C\C/C=C\CCCC(=O)NCC(=O)O | 0.0
* COc1cnc(OC)n2nc(NS(=O)(=O)c3c(OCC(F)F)cccc3C(F)(F)F)nc12 | 0.0

Kindly review the next molecule as well.
Prompt: What did the test return for COC(=O)N(OC)c1ccccc1COc1ccn(-c2ccc(Cl)cc2)n1 ?
Completion: 1.0

###

Experiment: qHTS assay to identify small molecule agonists of the peroxisome proliferator-activated receptor delta (PPARd) signaling pathway - cell viability counter screen (AID 743211); note: nearly all actives have a fitted effect of over 55% in size; note: potency is the fitted concentration of half-maximal effect
Conditions: PPARd-bla HEK293H viability, CellTiter-Glo luminescence, 17 h; series mostly up to 62.6 µM
Inconclusive results are not listed. Calls of active or inactive are those of the source. Calls come from the whole dose curve; as a rule, active = well fitted cell-killing curve with a large enough effect in the repeat runs; inconclusive = weak or mixed curves; inactive = no such curve, though single readings can be large or run the other way.
assayEndpoint: Potency

These recorded examples may help you get a feel for the data.
* O=C(O)CCCCCCNC1c2ccccc2CCc2ccccc21 | inactive
* O=C(N[C@H]1N=C(c2ccccc2F)c2cccc3c2N(CC3)C1=O)c1cc2ccccc2[nH]1 | inactive
* CCCCCCC[CH2][Sn]([Cl])([Cl])[CH2]CCCCCCC | 24.5 µM (active)
* O=[N+]([O-])c1ccccc1-c1ccccc1 | inactive

Kindly note the recorded Potency for Clc1ccc(C(Cl)(Cl)Cl)cc1Cl , which is inactive

Entry CC(C)C(Br)C(=O)NC(N)=O (configuration not stated) ; Potency = inactive

What the record says about NC(=O)C(Cl)Cl : Potency is inactive

Recorded result, O=c1[nH]c2cc(Cl)ccc2n1C1CCNCC1 , Potency: inactive

###

Assay: A CellTox Green Cytotoxicity Assay to monitor cytotoxicity in HEK293 cells - 8 hour (AID 1224884); note: nearly all actives have a fitted effect of over 35% in size
Conditions: CellTox Green fluorescence; series mostly up to 76.8 µM
Results filed as inconclusive are left out. The source made the active and inactive calls. Calls follow the shape of the dose curve; as a rule, active = well fitted activation curve with a large enough effect in the repeat runs; inconclusive = weak or mixed curves; inactive = flat fitted curve, though single readings scatter.
Please answer using one outcome listed in true (active), false (inactive)

Recorded results for 5 compounds are shown here.
- Cc1ccc([N+](=O)[O-])[c]2c1[O][Hg]2: false
- CC(C)C(Nc1ccc(C(F)(F)F)cc1Cl)C(=O)OC(C#N)c1cccc(Oc2ccccc2)c1 (stereo unspecified): false
- O=C1C(Cl)=C(Cl)C(=O)C(Cl)=C1Cl: false
- S=C=Nc1ccccc1: false
- Nc1ccc(Cl)cc1C(=O)c1ccccc1F: false

Next:
Prompt: Outcome logged for CCC1COC(Cn2cncn2)(c2ccc(Cl)cc2Cl)O1 (stereo unspecified) in this assay:
Completion: false

###

Experiment: qHTS RealTime-Glo MT Cell Viability Assay in HepG2 cells - 24 hour (AID 1224867); note: nearly all actives have a fitted effect of over 50% in size
Conditions: RealTime-Glo luminescence; series mostly up to 76.8 µM
Source text: U.S. Tox21 Program National Center for Advancing Translational Sciences [NCATS] NIH Chemical Genomics Center [NCGC] U.S. Environmental Protection Agency [EPA] National Institutes of Environmental Health Sciences [NIEHS] National Toxicology Program [NTP] U.S. Food and Drug Administration [FDA] Tox21 Assay Overview: Measure of cell viability is critical in the cell-base assay. Analysis of cell viability is necessary for the characterization of cell responses to cytotoxic drugs and environmental stress. […]
Results filed as inconclusive are left out. Activity calls are given as the source filed them. Calls follow the shape of the dose curve; as a rule, active = well fitted cell-killing curve with a large enough effect in the repeat runs; inconclusive = weak or mixed curves; inactive = flat fitted curve, though single readings scatter.
// classify into 1 (active), -1 (inactive)

For orientation, consider the following solved cases.
- Cc1cnc2c(C(=O)O)c(Cl)ccc2c1: -1
- BrCC(Br)(Br)Br: -1
- CN1CCc2cc(Cl)c(O)cc2[C@H]2c3ccccc3CC[C@@H]21: -1
- [O]=[Cr][O][Cr]=[O]: -1
- Oc1cc(Cl)c(Cl)c(Cl)c1Cl: -1
- O=C1C[C@@H]2OCC=C3CN4CC[C@]56c7ccccc7N1[C@H]5[C@H]2[C@H]3C[C@H]46: -1
- Clc1cc(Cl)c(-c2cc(Cl)c(Cl)cc2Cl)cc1Cl: -1
- C[C@H]1[C@H](c2ccc(Cl)cc2)SC(=O)N1C(=O)NC1CCCCC1: -1

Prompt: Please state the recorded outcome for this molecule: CC(C)N(C(=O)SC/C(Cl)=C/Cl)C(C)C
Completion: -1

Prompt: Hey, what did the test say about COC(=O)c1ccccc1S(=O)(=O)NC(=O)Nc1nc(C)nc(OC)n1 ?
Completion: -1

Prompt: What did the test return for CC(=O)[O-].CC(=O)[O-].O.O.O.[Pb+2] ?
Completion: -1

Prompt: Dear colleague, could you share the recorded outcome for O=S(=O)(NS(=O)(=O)C(F)(F)F)C(F)(F)F when you have a moment?
Completion: -1

Prompt: How did this test come out for CC(=O)[O][Pb]([c]1ccccc1)([c]1ccccc1)[c]1ccccc1 ?
Completion: 1

Prompt: Assay outcome for COc1ccc2c(c1OC)C(=O)O[C@@H]2[C@H]1c2cc3c(cc2CCN1C)OCO3 : what was it?
Completion: -1

Prompt: What did this assay record as the result for C[C@]12Cc3cn[nH]c3C[C@@H]1CC[C@@H]1[C@@H]2CC[C@@]2(C)[C@H]1CC[C@]2(C)O ?
Completion: -1
